# TARGET ENTITY: Ac-VQIINK-NH2 (SEQ ID NO: 23) (N-terminal acetyl (Ac); C-terminal amide (NH2))
# PROCEDURE DETAILS: cell-based or functional assay
Square brackets hold non-standard residues; d marks the D form. Ends that are not written are not given here.
ENDPOINT LABEL: VQIINK Inhibition IC50

Look over these answered cases.
INSERT INTO assay_data (binder, endpoint_label, meas_value) VALUES
  ('[dL][dK][dI][dE][dI][dH][dY] [lkieihy]', 'VQIINK Inhibition IC50', '0.65 µm'),
  ('[dL][dK][dI][dQ][dI][dH][dY] [lkiqihy]', 'VQIINK Inhibition IC50', '2.82 µm'),
  ('[dE][dR][dL][dK][dV][dR][dW][dW] [erlkvrww]', 'VQIINK Inhibition IC50', '20.4 µm');

What does the data say about its VQIINK Inhibition IC50? Entry: [dE][dR][dL][dR][dI][dH][dW] [erlrihw]
13.6 µm

What does the data say about its VQIINK Inhibition IC50? Entry: [dL][dK][dL][dE][dI][dR][dW][dH] [lkleirwh]
1.76 µm

What does the data say about its VQIINK Inhibition IC50? Entry: [dW][dR][dI][dR][dI][dR][dW] [wririrw]
1.73 µm

What does the data say about its VQIINK Inhibition IC50? Entry: [dW][dR][dL][dR][dI][dA][dW] [wrlriaw]
2.86 µm

What does the data say about its VQIINK Inhibition IC50? Entry: [dW][dR][dL][dR][dV][dR][dW][dW] [wrlrvrww]
0.79 µm

What does the data say about its VQIINK Inhibition IC50? Entry: [dL][dR][dI][dK][dI][dR][dF][dH] [lrikirfh]
2.69 µm

What does the data say about its VQIINK Inhibition IC50? Entry: [dL][dE][dI][dK][dI][dR][dH][dW] [leikirhw]
1.15 µm
